// data source = PubChem BioAssay (NCI)

- Test system: SNB-75 CNS
- protocol-description: NCI tumour cell line growth inhibition, 48 h
As shown below, each of these molecules has a reported GI50 value.

• COC(=O)[C@@H](C)C[C@H](Cc1ccccc1)NC(=O)c1nc([C@@H](C[C@H](C(C)C)N(C)C(=O)[C@@H](NC(=O)[C@H]2CCCCN2C)C(C)C)OC(C)=O)sc1C = < 1.67 nM
• O=C1c2ccccc2-c2c1c1ccccc1c(=O)n2CCCNCCCNCCCn1c2c(c3ccccc3c1=O)C(=O)c1ccccc1-2 = 1130 nM
• COc1ccc2c(c1)O/C(=C\c1cccc(OCC(=O)Nc3nc4c(s3)CCCC4)c1)C2=O = 11500 nM
• C[C@@H](C(=O)Nc1ccc(Cl)cc1)C1CCC(c2ccnc3ccc(F)cc23)CC1 (some centres not stated) = 12500 nM
• Cc1ccc2c(ccc3c[n+]4c5ccccc5ccc4n32)c1 = 1180 nM

Using the record for CC1SC(c2c(Cl)cccc2Cl)N(NC(=O)c2[nH]c3ccc(F)cc3c2-c2ccccc2)C1=O (configuration not stated) , report its GI50.
1430 nM

Moving on to the next molecule: Cc1ccc(/C=C2\CN(C(=O)OC(C)(C)C)C/C(=C\c3ccc(C)cc3)C2=O)cc1
693 nM

* * *

- Tested on: SW-620 colon
- protocol-description: NCI tumour cell line growth inhibition, 48 h
parameter-measured: TGI (µM)
Numeric answer only, unit µM assumed.

Would you please look over these solved cases?
- CC/C=C\C=C/C(=O)N/C=C/CC1Cc2cccc(O)c2C(=O)O1 (centres undefined): 28.2
- COC(=O)[C@]12CC[C@@H](C)[C@H](C)[C@@H]1C1=CC[C@@H]3[C@@]4(C)C[C@@H](OC(C)=O)[C@H](O)[C@@](C)(COC(C)=O)[C@@H]4[C@H](O)C[C@@]3(C)[C@]1(C)CC2: 8.76
- COC(=O)c1ccccc1/C=C1/Cc2ccccc2C1=O: 85.5

Shift focus to the following entry.
Using the record for COc1ccc2nc3cc([N+](=O)[O-])ccc3c(NCCCCCN(C)C)c2c1 , report its TGI.
3

* * *

- System: SNB-75 CNS
- protocol-description: NCI tumour cell line growth inhibition, 48 h
parameter-measured: TGI (µM)
Numeric answer only, unit µM assumed.

Would you please look over these solved cases?
* CCN(CC)c1ccc(C(=C2C=CC(=[N+](CC)Cc3cccc(S(=O)(=O)O)c3)C=C2)c2ccc(N(CC)Cc3cccc(S(=O)(=O)O)c3)cc2)cc1 | 17.3
* CCOC(=O)c1[nH]cc(C)c1-c1ccn(-c2ccccc2)c1 | 49.5
* Cc1ccc(S(=O)(=O)N2CCSCCSCCSCCSCC2)cc1 | 29.8

Shift focus to the following entry.
Using the record for COc1ccc(N2C(C)=C(C#N)C34C(=O)N(c5ccccc5)C(=O)C3=C(O)C=CC24O)cc1 (centres undefined) , report its TGI.
44.5

* * *

- Test system: RPMI-8226 leukemia
- protocol-description: NCI tumour cell line growth inhibition, 48 h; in the data active = GI50 below about 0.43 µM; inactive = the rest
Select the correct class. Options are true (active), false (inactive) and nothing else.

Hi team, can someone confirm the assay call for C=C1C(O)C2(O)OCC34C(CC5C(C)=CC(=O)C(O)C5(C)C23)OC(=O)C(OC(=O)C/C=C(\C)CCCCC)C14 (stereo not drawn) ?
true

Moving on to the next compound: Nc1nc(Cl)cc(OCC2(O)CC(COC(=O)c3ccccc3)C2)n1 (stereo not drawn)
false

Moving on to the next compound: COc1ccc2c(c1)O/C(=C\c1cccc(OCC(=O)Nc3nc4c(s3)CCCC4)c1)C2=O
false

Moving on to the next compound: N#Cc1cnc2cc(OC[C@H](O)CO)c(NC(=O)CC3CSSC3)cc2c1Nc1ccc(OCc2cccc(F)c2)c(Cl)c1
false

Moving on to the next compound: Cc1ccncc1.[O]=[Ge].[O]=[Ge].[O]=[Ge].[O]=[Ge].[O]=[Ge].[O]=[Ge][OH].[O]=[Ge][OH]
false

Moving on to the next compound: CN1CCN(CCc2cccc(C(=O)c3cnn(-c4ccc(F)cc4)c3N)c2)CC1
false

Moving on to the next compound: COC(=O)[C@H](Cc1cn(C)cn1)NC(=O)[C@H](Cc1c[nH]c2ccccc12)NC(=O)Nc1cc(C(F)(F)F)cc(C(F)(F)F)c1
false

Moving on to the next compound: CCN(CC)S(=O)(=O)c1ccc(OC)c(Nc2ncc(-c3ccccc3)o2)c1
false

Moving on to the next compound: Oc1ccc(-c2nnc3sc(-c4ccc(F)cc4)nn23)cc1
false

Moving on to the next compound: Cc1sc(C(=O)Nc2cc(C(=O)NCCCN(C)C)n(C)c2)cc1NC(=O)CCCN1C(=O)c2cccc3cccc(c23)C1=O
false

Moving on to the next compound: COC(=O)[C@]12CC[C@@H](C)[C@H](C)[C@@H]1C1=CC[C@@H]3[C@@]4(C)C[C@@H](OC(C)=O)[C@H](O)[C@@](C)(COC(C)=O)[C@@H]4[C@H](O)C[C@@]3(C)[C@]1(C)CC2
false

Moving on to the next compound: COc1cccc(/C=C/C(=O)c2cccc(Nc3nc(Nc4ccccc4)nc(Nc4ccccc4)n3)c2)c1
false

Moving on to the next compound: COC(=O)[C@@H](C)C[C@H](Cc1ccccc1)NC(=O)c1nc([C@@H](C[C@H](C(C)C)N(C)C(=O)[C@@H](NC(=O)[C@H]2CCCCN2C)C(C)C)OC(C)=O)sc1C
true

* * *

- System: K-562 leukemia
- protocol-description: NCI tumour cell line growth inhibition, 48 h; in the data active means GI50 below about 0.43 µM; inactive means the rest
Select the correct class. Options are yes (1) = active, no (0) = inactive and nothing else.

Solved cases (5 shown):
- CN(CCCN)CCCNc1nc2ccccc2c2[nH]c3ccccc3c12: yes (1)
- CCN(CC)S(=O)(=O)c1ccc(OC)c(Nc2ncc(-c3ccccc3)o2)c1: no (0)
- CC1SC(c2c(Cl)cccc2Cl)N(NC(=O)c2[nH]c3ccc(F)cc3c2-c2ccccc2)C1=O (stereo not drawn): no (0)
- COc1ccc(C(=O)/C=C/c2ccc(/C=C/c3cc(OC)c(OC)c(OC)c3)cc2)cc1: no (0)
- COc1c(CCC[P+](c2ccccc2)(c2ccccc2)c2ccccc2)cc2c(c1OC)OCO2: no (0)

Hi team, can someone confirm the assay call for O=C([O-])c1ccccc1Nc1ccccn1.O=C([O-])c1ccccc1Nc1ccccn1.[Ni+2] ?
no (0)

Moving on to the next compound: COC(=O)[C@@H](C)C[C@H](Cc1ccccc1)NC(=O)c1nc([C@@H](C[C@H](C(C)C)N(C)C(=O)[C@@H](NC(=O)[C@H]2CCCCN2C)C(C)C)OC(C)=O)sc1C
yes (1)

Moving on to the next compound: CNC(=O)n1ccc2cc(Oc3ccnc(NC(=O)c4ccc(C5CCN(CCO)CC5)cc4)c3)c(OCCOC)cc21
no (0)

* * *

- System: HS 578T breast
- protocol-description: NCI tumour cell line growth inhibition, 48 h; in the data active = GI50 below about 0.43 µM; inactive = the rest
Select the correct class. Options are active, inactive and nothing else.

- Nc1ccn(Cc2ccc(C34CC5CC(CC(C5)C3)C4)c(O)c2)c(=O)n1: inactive

Hi team, can someone confirm the assay call for CN(CCCN)CCCNc1nc2ccccc2c2[nH]c3ccccc3c12 ?
active

Moving on to the next molecule: C[C@@H](C(=O)Nc1ccc(Cl)cc1)C1CCC(c2ccnc3ccc(F)cc23)CC1 (stereo partly specified)
inactive

Moving on to the next molecule: CCN(Cc1ccc(F)c(F)c1)c1ccc(CO)c(Cl)c1
inactive

* * *

- Test system: SF-295 CNS
- protocol-description: NCI tumour cell line growth inhibition, 48 h
parameter-measured: TGI

Would you please look over these solved cases?
• CNC(=O)n1ccc2cc(Oc3ccnc(NC(=O)c4ccc(C5CCN(CCO)CC5)cc4)c3)c(OCCOC)cc21 = 21 µM
• CC(C)(C)NC(=O)[C@H]1CC[C@H]2[C@@H]3CC=C4NC(=O)CC[C@]4(C)[C@H]3CC[C@]12C = > 100 µM
• COP(=O)(O)/C=C/C(NC(=O)C(Cl)(Cl)Cl)c1ccccc1 (configuration not stated) = > 100 µM
• N#Cc1cnc2cc(OC[C@H](O)CO)c(NC(=O)CC3CSSC3)cc2c1Nc1ccc(OCc2cccc(F)c2)c(Cl)c1 = 1.6 µM
• C[C@H](Nc1ncnc2nc[nH]c12)c1cc2cccc(Cl)c2c(=O)n1-c1ccccc1 = > 100 µM

Using the record for COC(=O)CCC1CCc2c(OC)ccc(O)c2C1=O (configuration not stated) , report its TGI.
> 100 µM

Moving on to the next compound: CC(C)(C)N=c1n(C(C)(C)C)oc(=O)n1C(C)(C)C
> 100 µM

Moving on to the next compound: C=C1C(=O)O[C@H]2[C@H]1CC/C(COC(=O)NCc1ccccc1OC)=C\CC[C@@]1(C)O[C@@H]21
18.8 µM

Moving on to the next compound: CCCCOC(C)(C)/C=C/C(O)[C@](C)(O)[C@H]1[C@H](O)C[C@@]2(C)[C@@H]3CCc4c(cc(OC5OC(CO)C(O)C(O)C5O)c(O)c4C)C3(C)C(=O)C[C@]12C (some centres not stated)
> 100 µM

Moving on to the next compound: Nn1c(CCCCCCCCc2nnc(COc3c(O)ccc4ccccc34)n2N)nnc1COc1c(O)ccc2ccccc12
> 100 µM

Moving on to the next compound: O=C(c1ccccc1)C1N=NCC1c1ccc([N+](=O)[O-])cc1 (configuration not stated)
> 100 µM

Moving on to the next compound: CCN1C(=O)N(CC)C2C1NN=c1s/c(=C\c3cccnc3)c(=O)n12 (configuration not stated)
> 100 µM

Moving on to the next compound: Cc1cc(-c2nc3c(O)cccc3s2)ccc1N
72.2 µM

Moving on to the next compound: O=C1NCCCc2nonc21
> 100 µM

Moving on to the next compound: COC(=O)c1c(C)cccc1/C=C1/Cc2c(C)cccc2C1=O
> 100 µM

Moving on to the next compound: CNS(=O)(=O)NN(C)S(=O)(=O)c1ccc(F)cc1
> 100 µM

Moving on to the next compound: Cc1ccc(-c2c(N)[n+]([O-])c3ccccc3[n+]2[O-])cc1
45.1 µM

Moving on to the next compound: O=C1CCC(=Nc2ccc(Cl)cc2)N1C(=O)COc1ccc(OCC(=O)N2C(=O)CSC2=Nc2ccc(Cl)cc2)cc1
> 100 µM

Moving on to the next compound: COC(=O)[C@]12CC[C@@H](C)[C@H](C)[C@@H]1C1=CC[C@@H]3[C@@]4(C)C[C@@H](OC(C)=O)[C@H](O)[C@@](C)(COC(C)=O)[C@@H]4[C@H](O)C[C@@]3(C)[C@]1(C)CC2
4.07 µM

Moving on to the next compound: CC1=NCCc2c1[nH]c1cc(O)ccc21
> 100 µM

Moving on to the next compound: CC(CC(C#N)(c1ccccc1)c1ccccc1)N1CCCCC1 (configuration not stated)
65.8 µM

Moving on to the next compound: COc1c2c(c3c(c1CCC(=O)O)OC(C)(C)C=C3)OC(C)(C)C=C2
> 100 µM
